Target of assay: T1, c-erbB-2 ECD with a Ser-Gly-His6 C-terminal fusion (UniProt P04626 23-652)
T1 construct: extracellular domain; Expressed from CHO cells, IMAC purified; coupled to a CM5 chip, coated on plates, or biotinylated with NHS-LC-biotin; also called c-erbB-2 extracellular domain; biotinylated c-erbB-2 ECD
Method description: SPR BIAcore
Measurement label: log10 koff (log10 of the value in s⁻¹)
Parameter value (number): base-10 log of koff in s⁻¹.

Below are worked cases with known answers.
C6-9L1 (scFv, C6L1 with the VL CDR3 of C6ML3-9) scFv: QVQLLQSGAELKKPGESLKISCKGSGYSFTSYWIAWVRQMPGKGLEYMGLIYPGDSDTKYSPSFQGQVTISVDKSVSTAYLQWSSLKPSDSAVYFCARHDVGYCSSSNCAKWPEYFQHWGQGTLVTVSSGGGGSGGGGSGGGGSQSVLTQPPSVSGAPGQWVTISCSGSSSNIGNNYVSWYQQLPGTAPKLLIYDNNKRPSGVPDRFSGSQSGTSASLAISGLRSEDEADYYCASWDYTLSGWVFGGGTKLTVLG | -3.52
C6-B1D5 (scFv, Combined B1 and D5 mutations on C6ML3-9) scFv: QVQLLQSGAELKKPGESLKISCKGSGYSFTSYWIAWVRQMPGKGLEYMGLIYPGDSDTKYSPSFQGQVTISVDKSVSTAYLQWSSLKPSDSAVYFCARHDVGYCTDRTCAKWPEWMQMWGQGTLVTVSSGGGGSGGGGSGGGGSQSVLTQPPSVSAAPGQKVTISCSGSSSNIGNNYVSWYQQLPGTAPKLLIYGHTNRPAGVPDRFSGSKSGTSASLAISGFRSEDEADYYCASWDYTLSGWVFGGGTKLTVLG | -4.74
C6-B47D5 (scFv, Combined B47 and D5 mutations on C6ML3-9) scFv: QVQLLQSGAELKKPGESLKISCKGSGYSFTSYWIAWVRQMPGKGLEYMGLIYPGDSDTKYSPSFQGQVTISVDKSVSTAYLQWSSLKPSDSAVYFCARHDVGYCTDRSCAKWPEWMQMWGQGTLVTVSSGGGGSGGGGSGGGGSQSVLTQPPSVSAAPGQKVTISCSGSSSNIGNNYVSWYQQLPGTAPKLLIYGHTNRPAGVPDRFSGSKSGTSASLAISGFRSEDEADYYCASWDYTLSGWVFGGGTKLTVLG | -4.41
C6-12L1 (scFv, C6L1 with the VL CDR3 of C6ML3-12) scFv: QVQLLQSGAELKKPGESLKISCKGSGYSFTSYWIAWVRQMPGKGLEYMGLIYPGDSDTKYSPSFQGQVTISVDKSVSTAYLQWSSLKPSDSAVYFCARHDVGYCSSSNCAKWPEYFQHWGQGTLVTVSSGGGGSGGGGSGGGGSQSVLTQPPSVSGAPGQWVTISCSGSSSNIGNNYVSWYQQLPGTAPKLLIYDNNKRPSGVPDRFSGSQSGTSASLAISGLRSEDEADYYCAAWDYSRSGWVFGGGTKLTVLG | -3.89

Here is another binder to look at.
Enquiry: Tell us which log10 koff value is on record for C6-B1D3 (scFv, Combined B1 and D3 mutations on C6ML3-9) scFv: QVQLLQSGAELKKPGESLKISCKGSGYSFTSYWIAWVRQMPGKGLEYMGLIYPGDSDTKYSPSFQGQVTISVDKSVSTAYLQWSSLKPSDSAVYFCARHDVGYCTDRTCAKWPEWLDNWGQGTLVTVSSGGGGSGGGGSGGGGSQSVLTQPPSVSAAPGQKVTISCSGSSSNIGNNYVSWYQQLPGTAPKLLIYGHTNRPAGVPDRFSGSKSGTSASLAISGFRSEDEADYYCASWDYTLSGWVFGGGTKLTVLG
Return: -5.10

Origin of values: patent US6512097
